FYI, the data here is from patent US20100267697A1.

- TEST TARGET: Cav2.2 (Homo sapiens, UniProt Q00975)
- Construct: expressed in transfected cells; host or cells: HEK-293T/17 (transient, FuGENE 6)
- Sequence (Q00975 whole entry): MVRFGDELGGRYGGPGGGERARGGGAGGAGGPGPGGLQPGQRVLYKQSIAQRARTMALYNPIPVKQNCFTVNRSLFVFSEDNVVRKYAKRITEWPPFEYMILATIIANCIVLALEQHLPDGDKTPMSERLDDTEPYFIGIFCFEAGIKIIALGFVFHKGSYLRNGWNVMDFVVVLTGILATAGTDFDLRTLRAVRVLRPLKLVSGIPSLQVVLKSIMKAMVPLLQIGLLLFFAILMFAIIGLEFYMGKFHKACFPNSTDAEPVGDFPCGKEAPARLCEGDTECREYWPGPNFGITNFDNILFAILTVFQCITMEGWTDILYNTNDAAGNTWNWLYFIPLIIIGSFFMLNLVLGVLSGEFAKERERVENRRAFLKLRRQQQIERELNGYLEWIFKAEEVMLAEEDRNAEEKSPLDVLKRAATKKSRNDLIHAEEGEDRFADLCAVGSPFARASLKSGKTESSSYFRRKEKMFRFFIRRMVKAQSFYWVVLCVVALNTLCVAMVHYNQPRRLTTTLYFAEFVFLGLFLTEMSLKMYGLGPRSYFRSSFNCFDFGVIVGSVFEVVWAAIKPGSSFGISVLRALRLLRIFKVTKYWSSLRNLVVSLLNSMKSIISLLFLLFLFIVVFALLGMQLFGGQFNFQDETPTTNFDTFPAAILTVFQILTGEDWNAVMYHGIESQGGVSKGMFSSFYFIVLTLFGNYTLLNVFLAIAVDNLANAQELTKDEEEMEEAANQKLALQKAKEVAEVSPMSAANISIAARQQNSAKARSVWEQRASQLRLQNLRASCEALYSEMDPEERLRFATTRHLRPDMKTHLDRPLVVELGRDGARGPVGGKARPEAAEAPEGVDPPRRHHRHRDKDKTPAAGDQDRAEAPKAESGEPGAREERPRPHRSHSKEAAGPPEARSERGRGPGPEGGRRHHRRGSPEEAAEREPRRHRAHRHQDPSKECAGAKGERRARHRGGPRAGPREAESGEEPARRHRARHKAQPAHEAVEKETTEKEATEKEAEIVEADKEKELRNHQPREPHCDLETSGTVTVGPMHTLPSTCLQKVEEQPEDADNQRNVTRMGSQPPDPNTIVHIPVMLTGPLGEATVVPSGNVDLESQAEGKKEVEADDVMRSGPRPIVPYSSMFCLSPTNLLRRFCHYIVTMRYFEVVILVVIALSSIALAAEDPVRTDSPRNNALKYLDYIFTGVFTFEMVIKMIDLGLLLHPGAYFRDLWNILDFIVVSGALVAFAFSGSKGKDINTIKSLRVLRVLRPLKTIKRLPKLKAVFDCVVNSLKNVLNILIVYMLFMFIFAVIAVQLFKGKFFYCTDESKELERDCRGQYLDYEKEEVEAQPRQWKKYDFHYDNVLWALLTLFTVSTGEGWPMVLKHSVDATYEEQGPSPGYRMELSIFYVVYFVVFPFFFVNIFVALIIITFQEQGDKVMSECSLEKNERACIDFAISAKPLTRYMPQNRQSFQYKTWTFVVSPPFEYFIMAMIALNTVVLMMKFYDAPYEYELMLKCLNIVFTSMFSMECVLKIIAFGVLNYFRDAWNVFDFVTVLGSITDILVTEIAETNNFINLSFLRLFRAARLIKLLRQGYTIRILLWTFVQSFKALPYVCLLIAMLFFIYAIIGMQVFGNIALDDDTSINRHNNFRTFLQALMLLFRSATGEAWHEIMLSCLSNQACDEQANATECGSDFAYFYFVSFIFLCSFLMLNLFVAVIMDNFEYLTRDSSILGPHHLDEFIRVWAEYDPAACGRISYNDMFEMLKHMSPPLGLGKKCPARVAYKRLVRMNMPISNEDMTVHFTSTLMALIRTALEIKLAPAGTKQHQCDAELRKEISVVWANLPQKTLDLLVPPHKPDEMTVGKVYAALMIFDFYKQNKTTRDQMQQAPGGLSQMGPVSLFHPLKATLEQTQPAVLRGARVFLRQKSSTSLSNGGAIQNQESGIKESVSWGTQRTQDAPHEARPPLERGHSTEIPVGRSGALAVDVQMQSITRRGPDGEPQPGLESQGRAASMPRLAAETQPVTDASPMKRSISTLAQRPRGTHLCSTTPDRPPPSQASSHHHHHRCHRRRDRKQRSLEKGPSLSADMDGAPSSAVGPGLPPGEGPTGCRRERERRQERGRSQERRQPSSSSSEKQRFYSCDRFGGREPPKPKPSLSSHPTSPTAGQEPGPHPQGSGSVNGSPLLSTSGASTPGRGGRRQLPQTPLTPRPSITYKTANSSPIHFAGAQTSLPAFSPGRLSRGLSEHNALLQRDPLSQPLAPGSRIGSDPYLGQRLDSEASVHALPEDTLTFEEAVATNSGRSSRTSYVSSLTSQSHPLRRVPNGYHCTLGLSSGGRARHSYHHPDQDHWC
- Sequence (P54284 whole entry partner): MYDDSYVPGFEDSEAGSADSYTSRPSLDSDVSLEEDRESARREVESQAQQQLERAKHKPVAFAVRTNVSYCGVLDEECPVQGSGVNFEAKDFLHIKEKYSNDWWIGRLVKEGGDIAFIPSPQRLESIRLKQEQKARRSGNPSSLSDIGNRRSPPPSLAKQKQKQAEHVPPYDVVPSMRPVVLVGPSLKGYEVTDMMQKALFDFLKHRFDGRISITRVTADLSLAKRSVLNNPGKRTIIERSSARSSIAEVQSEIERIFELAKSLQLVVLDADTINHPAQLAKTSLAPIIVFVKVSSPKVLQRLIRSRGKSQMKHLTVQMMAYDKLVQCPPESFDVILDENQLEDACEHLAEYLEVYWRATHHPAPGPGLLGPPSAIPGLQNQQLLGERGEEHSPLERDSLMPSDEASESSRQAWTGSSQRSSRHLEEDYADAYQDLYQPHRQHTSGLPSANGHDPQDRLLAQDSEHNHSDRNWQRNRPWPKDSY
- Sequence (P54289 25-946 partner limits assumed): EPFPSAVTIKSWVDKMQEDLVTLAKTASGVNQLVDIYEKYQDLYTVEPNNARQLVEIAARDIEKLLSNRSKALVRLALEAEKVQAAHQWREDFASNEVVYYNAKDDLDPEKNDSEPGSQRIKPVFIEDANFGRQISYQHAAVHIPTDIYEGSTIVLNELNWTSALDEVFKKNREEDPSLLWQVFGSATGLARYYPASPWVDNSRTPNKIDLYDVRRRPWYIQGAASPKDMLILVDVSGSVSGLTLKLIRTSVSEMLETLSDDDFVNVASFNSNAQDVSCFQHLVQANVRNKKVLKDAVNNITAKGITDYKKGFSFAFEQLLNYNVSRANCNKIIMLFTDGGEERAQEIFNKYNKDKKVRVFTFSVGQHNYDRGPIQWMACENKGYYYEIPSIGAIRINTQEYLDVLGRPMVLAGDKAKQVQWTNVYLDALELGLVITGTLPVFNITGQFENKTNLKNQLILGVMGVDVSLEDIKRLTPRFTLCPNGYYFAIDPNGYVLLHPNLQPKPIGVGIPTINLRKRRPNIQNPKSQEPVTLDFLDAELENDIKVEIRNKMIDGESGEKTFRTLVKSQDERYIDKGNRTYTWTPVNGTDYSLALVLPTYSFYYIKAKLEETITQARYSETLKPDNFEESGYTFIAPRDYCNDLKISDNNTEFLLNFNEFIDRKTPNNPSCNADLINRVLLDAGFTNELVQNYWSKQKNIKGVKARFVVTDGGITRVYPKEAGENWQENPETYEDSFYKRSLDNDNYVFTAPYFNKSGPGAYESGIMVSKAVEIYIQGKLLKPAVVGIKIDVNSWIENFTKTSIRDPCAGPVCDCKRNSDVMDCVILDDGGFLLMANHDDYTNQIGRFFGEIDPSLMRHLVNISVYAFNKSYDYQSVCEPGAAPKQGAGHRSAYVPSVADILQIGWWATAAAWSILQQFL
- Sequence (P54289 947-1103 partner limits assumed): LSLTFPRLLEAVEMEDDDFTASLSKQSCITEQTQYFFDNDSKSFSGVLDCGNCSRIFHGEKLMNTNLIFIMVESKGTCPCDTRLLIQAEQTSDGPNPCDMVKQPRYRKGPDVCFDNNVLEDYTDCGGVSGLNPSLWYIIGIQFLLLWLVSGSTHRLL
- PROTOCOL SUMMARY: HEK assay (whole-cell patch clamp, transiently transfected HEK-293T/17 cells, pulses P1 and P5)
- Format: cell-based
- APPLIED CONDITIONS: fifth pulse (P5) of 5 Hz train, holding potential −100 mV, read-out: HEK Cav2.2 P5 IC50
Where a name gives a salt, the structure may show the parent alone.
VALUE KIND: IC50 (µM)

Consider the worked cases shown below.
CN(CCO)c1ccc(CN(C(=O)C(C)(C)C)c2ccc(F)cc2)cn1 [Compound 38] ... 7.6
CC(C)(C)C(=O)N(Cc1ccc(N2CCCCC2)nc1)c1ccc(F)cc1 [Compound 70] ... 1.9
CCN(c1ccc(CN(C(=O)CCC(C)C)c2ccc(F)cc2)cn1)C1CC1 [Compound 13, hydrochloride] ... 1.8
CCN(c1ccc(CN(C(=O)C(C)(C)C)c2ccc(F)cc2)cn1)C1CC1 [Compound 7] ... 1.7

I: CN(c1ccc(F)cc1)c1nc(CN(C(=O)C(C)(C)C)c2ccc(F)cn2)cs1 [Compound 82]
II: CN(CCOc1ccccn1)c1ccc(CN(C(=O)C(C)(C)C)c2ccc(F)cc2)cn1 [Compound 29]
III: CC(C)(C)C(=O)N(Cc1ccc(N2CCN(c3ccccn3)CC2)nc1)c1ccc(F)cc1 [Compound 25]
IV: CN1CCN(c2ncc(CN(C(=O)OC(C)(C)C)c3ccc(F)cc3)s2)CC1 [Compound 102]
Ordering: ascending IC50. Please, when replying, give the labels in the order that was requested. III, II, I, IV
(III: 0.3 µM, II: 1 µM, I: 2.2 µM, IV: 9.6 µM)
